The measured values listed here are drawn from paper PMC6216040.

- Test system: E. multilocularis metacestodes
- method description: PGI-assay: drug-induced damage on in vitro cultured metacestodes (Pathogen Box screening cascade and EC50)
- Type: cell-based, Echinococcus multilocularis
- test conditions: Echinococcus multilocularis, 120 h, read-out: PGI release, % of the Tx-100 control, 5d
Reported cytotoxicity at 10 µM values for the following compounds.
Lab book: enter the figure in %, no units written.

Ask: Missing value: cytotoxicity at 10 µM, E. multilocularis metacestodes, entry CCc1nn(C)c(C(=O)NCc2ccc(Oc3ccc(C)cc3)cc2)c1Cl [MMV688934, Tolfenpyrad] . Fill in?
Reply: -1.16

Ask: Give recorded cytotoxicity at 10 µM with E. multilocularis metacestodes for the following compound: c1ccc(-c2nc(NC3CCCCC3)cc(C3CC3)n2)nc1 [MMV021013]
Reply: 34.8

Ask: Recall the recorded cytotoxicity at 10 µM for Cc1[nH]c2cc(F)cc(F)c2c(=O)c1-c1ccc(Oc2ccc(OC(F)(F)F)cc2)cc1 [MMV671636, ELQ-400] with E. multilocularis metacestodes and state it.
Reply: 6.52

Ask: # get_value(readout= cytotoxicity at 10 µM, system= E. multilocularis metacestodes) for O=C(Nc1cc(C(F)(F)F)cc(C(F)(F)F)c1)c1cc(Cl)ccc1O [MMV687807]
Reply: 30.8

###

- Tested on: Reuber rat hepatoma (RH) cells
- method description: Cytotoxicity by Alamar Blue assay in rat hepatoma cells
- Type: cell-based
- test conditions: 120 h, Alamar Blue, preconfluent cells, 5 days, read-out: RH preconfluent IC50
quantity measured: IC50

Ask: Item `CC(C)(C)[C@H]1CC[C@H](CC2=C(O)C(=O)c3ccccc3C2=O)CC1` has what recorded IC50?
Reply: 8.47 µM

###

- System: E. multilocularis metacestodes
- method description: PGI-assay: drug-induced damage on in vitro cultured metacestodes (Pathogen Box screening cascade and EC50)
- Format: cell-based, Echinococcus multilocularis
- test conditions: read-out: E. multilocularis EC50; PGI-assay, 5 days in vitro
quantity measured: EC50 (nM)
Respond with the bare value in nM.

Ask: I would be grateful if you could share the reported EC50 for `Cc1[nH]c2cc(F)cc(F)c2c(=O)c1-c1ccc(Oc2ccc(OC(F)(F)F)cc2)cc1` .
Reply: 20

###

- Test system: E. multilocularis metacestodes
- method description: PGI-assay: drug-induced damage on in vitro cultured metacestodes (Pathogen Box screening cascade and EC50)
- Format: cell-based, Echinococcus multilocularis
- test conditions: Echinococcus multilocularis, 288 h; 10 µM, singlets, 12 days of incubation; read-out: PGI release, % of the Tx-100 control, 12d
cytotoxicity at 10 µM values, listed per item
Numeric only. Scale: %

Ask: Quick one: cytotoxicity at 10 µM of CNCCC(Oc1ccc(C(F)(F)F)cc1)c1ccccc1 (stereo not shown) [MMV001561, Fluoxetine, reference compound] ?
Reply: -5.98

###

- Test system: E. multilocularis metacestodes
- method description: PGI-assay: drug-induced damage on in vitro cultured metacestodes (Pathogen Box screening cascade and EC50)
- Type: cell-based, Echinococcus multilocularis
- test conditions: Echinococcus multilocularis, 288 h; 10 µM, singlets, 12 days of incubation; read-out: PGI release, % of the Tx-100 control, 12d
quantity measured: cytotoxicity at 10 µM (%)
Hi! Could you send only the number? It should be in %, unit omitted.

1. Oc1c(I)cc(I)c2cccnc12 [MMV002817, Diiodohydroxyquinoline, reference compound]	-0.41

Ask: So what does the record say about cytotoxicity at 10 µM for CC[C@@H]([C@H](C)O)n1ncn(-c2ccc(N3CCN(c4ccc(OC[C@@H]5CO[C@@](Cn6cncn6)(c6ccc(F)cc6F)C5)cc4)CC3)cc2)c1=O [MMV688774, Posaconazole, reference compound] ?
Reply: -1.09

Ask: // returns reported cytotoxicity at 10 µM for input [H]/N=C(/N)N[C@H]1[C@H](O)[C@@H](O)[C@H](O[C@@H]2O[C@@H](C)[C@](O)(C=O)[C@H]2O[C@@H]2O[C@@H](CO)[C@H](O)[C@@H](O)[C@@H]2NC)[C@@H](N/C(N)=N\[H])[C@@H]1O [MMV688994, Streptomycin, reference compound]
Reply: 0.19
